- Test system: MIA-PaCa-2 pancreatic cancer cells
- test method notes: Colorimetric MTS cytotoxicity assay in MIA-PaCa-2 cells
- Type: cell-based, Human
- condition summary: Homo sapiens; Table 14; MIA-PaCa-2, 72 h; varied Gemcitabine, fixed LOR (free or system 2) 125 μM, Sulforaphane 5 μM
observation type: IC50 (µM)
Answers are plain numbers, in µM.

Given the compound Nc1ccn([C@@H]2O[C@H](CO)[C@@H](O)C2(F)F)c(=O)n1 [Gemcitabine] , what is its reported IC50? 692

----------
- Test system: MIA-PaCa-2 pancreatic cancer cells
- test method notes: Colorimetric MTS cytotoxicity assay in MIA-PaCa-2 cells
- Format: cell-based, Human
- condition summary: Table 5; MIA-PaCa-2, 72 h, MTS; combinations with fixed free Sulforaphane 5 μM
observation type: IC50 (µM)
Give bare numbers, in µM.

Given the molecule C[S+]([O-])CCCCN=C=S (stereo not shown) [Sulforaphane (free), Sulforaphane] , what is its reported IC50? 92.2
